Tested on: A673/TR/shEF
Experiment: cell viability (LOESS-normalised, relative to median of negative controls) (log2 ratio); higher = more viable cells (less compound effect), active = hit call of the paper (over 3 MAD below the median)
Conditions: 2.5 µM; library screen: screen2; EWS-FLI1 expression: low (doxycycline-induced shRNA knockdown); treatment time: 72 h
The campaign covered roughly 3,200 compounds. About 300 (9.4%) showed activity. The entries come from a sample that favours actives as a whole.
// map cell viability (log2) onto a label; ranges range A = under 0.04, range B = from 0.04 up to 0.1, range C = 0.1 and over

{"columns": ["MOLECULE", "CLASS"],
 "data": [
  ["COc1cc2c(c(OC)c1OC)-c1ccc(OC)c(=O)cc1[C@@H](NC(C)=O)CC2", "range A"],
  ["CN[C@@H]1C[C@@H](c2ccc(Cl)c(Cl)c2)c2ccccc21", "range C"],
  ["CN1CC[C@@]2(C)c3cc(O)ccc3N(C)C12 (some centres not stated)", "range B"],
  ["CC(C)Oc1cccnc1N(C)C1CCN(Cc2ccc(I)cc2)CC1", "range B"],
  ["NC(C(=O)O)c1cc(=O)[nH]o1 (configuration not stated)", "range B"],
  ["CCCN1CCc2cccc3c2[C@H]1Cc1ccc(O)c(O)c1-3", "range C"],
  ["O=C(O)C1C2CCC(O2)C1C(=O)O (configuration not stated)", "range A"],
  ["CC[C@H]1CN2CCc3cc(OC)c(OC)cc3[C@@H]2C[C@@H]1C[C@H]1NCCc2cc(OC)c(OC)cc21", "range A"],
  ["CC(C)(C)c1cc(C=C(C#N)C#N)cc(C(C)(C)C)c1O", "range C"],
  ["CC(O)C(C)OC(=O)[C@@H]1C[C@@H]2c3cccc4c3c(cn4C(C)C)C[C@H]2N(C)C1 (some centres not stated)", "range C"],
  ["CCNC(=O)[C@H]1O[C@@H](n2cnc3c(N)ncnc32)[C@H](O)[C@@H]1O", "range C"],
  ["CC(=O)O[C@H]1C[C@@H]2CC[C@@H]3[C@H](CC[C@@]4(C)[C@H]3C[C@H]([N+]3(C)CCCCC3)[C@@H]4OC(C)=O)[C@@]2(C)C[C@@H]1[N+]1(C)CCCCC1", "range B"],
  ["O=C(CCCN1CCC2(CC1)C(=O)N(CCc1ccc(N=C=S)cc1)CN2c1ccccc1)c1ccc(F)cc1", "range B"],
  ["C[C@@H]1OC(=O)[C@H]2C[C@H]3CCCC[C@@H]3[C@@H](/C=C/[C@@H]3CCC[C@@H](C)N3C)[C@@H]12", "range B"],
  ["C=CCN1CCc2cccc3c2[C@H]1Cc1ccc(O)c(O)c1-3", "range B"],
  ["CCCN1CCC[C@@H](c2cccc(C#N)c2)C1", "range C"],
  ["COc1cc(CCN)ccc1O", "range A"],
  ["S=C=Nc1cccc(C2(N3CCCCC3)CCCCC2)c1", "range C"],
  ["O=C(O)c1cc[c]([Hg][Cl])cc1", "range B"],
  ["O=C1C=CC(=O)c2c(O)cccc21", "range C"],
  ["Cc1c2ccncc2c(C)c2c1[nH]c1ccccc12", "range A"],
  ["C[C@@H]1CC[C@@]2(NC1)O[C@H]1C[C@H]3[C@@H]4CC=C5C[C@@H](O)CC[C@]5(C)[C@H]4CC[C@]3(C)[C@H]1[C@@H]2C", "range C"],
  ["NS(=O)(=O)c1ccc2c(c1)CNCC2", "range B"],
  ["C=CCN1C[C@@H](C)N([C@H](c2ccc(C(=O)N(CC)CC)cc2)c2cccc(OC)c2)C[C@@H]1C", "range A"],
  ["NCCc1ccc(S(=O)(=O)F)cc1", "range A"],
  ["CN1CC[C@]2(CCN3CCc4c(oc5ccccc45)[C@@H]3C2)N(C)C1=O", "range C"],
  ["C[N+](C)(C)CCOC(=O)CBr", "range C"],
  ["NCCc1ccc(O)cc1", "range B"],
  ["COc1cc(C(O)CN)ccc1O (configuration not stated)", "range A"],
  ["C[N+]1(C)C2CC(OC(=O)[C@H](CO)c3ccccc3)CC1C1OC12 (some centres not stated)", "range C"],
  ["C[C@]12CC[C@H](O)CC1=CC[C@@H]1[C@@H]2CC[C@]2(C)C(=O)CC[C@@H]12", "range C"],
  ["CC1=C[C@@H]2c3cccc4[nH]cc(c34)C[C@H]2N(C)C1", "range B"],
  ["CN1CCc2cc(O)cc3c2C1Cc1ccc(O)c(O)c1-3 (configuration not stated)", "range C"],
  ["NC(CCP(=O)(O)O)C(=O)O (configuration not stated)", "range C"],
  ["C[C@@H]1O[C@H](C[N+](C)(C)C)C[C@H]1O", "range A"],
  ["COc1ccc2c(c[n+](C)c3c4cc5c(cc4ccc23)OCO5)c1OC", "range A"],
  ["C[C@H]1OC[C@@H](C[N+](C)(C)C)O1", "range B"],
  ["O=[N+]([O-])c1ccc(O[C@@H]2O[C@H](CO)[C@@H](O)[C@H](O)[C@H]2F)c([N+](=O)[O-])c1", "range C"],
  ["CCCN1CCCC2Cc3[nH]ncc3CC21 (configuration not stated)", "range C"],
  ["CC12CCC3C(CC=C4CC(OS(=O)(=O)O)CCC43C)C1CCC2=O (configuration not stated)", "range A"],
  ["COC[C@H]1OC(=O)c2coc3c2[C@@]1(C)C1=C(C3=O)[C@@H]2CCC(=O)[C@@]2(C)C[C@H]1OC(C)=O", "range A"]
]}
